This collection of values is drawn from ChEMBL document CHEMBL5308504.

# TESTED SYSTEM: Casein kinase I isoform delta (Homo sapiens) (UniProt P48730)
# Sequence (P48730 whole entry, looked up, canonical isoform): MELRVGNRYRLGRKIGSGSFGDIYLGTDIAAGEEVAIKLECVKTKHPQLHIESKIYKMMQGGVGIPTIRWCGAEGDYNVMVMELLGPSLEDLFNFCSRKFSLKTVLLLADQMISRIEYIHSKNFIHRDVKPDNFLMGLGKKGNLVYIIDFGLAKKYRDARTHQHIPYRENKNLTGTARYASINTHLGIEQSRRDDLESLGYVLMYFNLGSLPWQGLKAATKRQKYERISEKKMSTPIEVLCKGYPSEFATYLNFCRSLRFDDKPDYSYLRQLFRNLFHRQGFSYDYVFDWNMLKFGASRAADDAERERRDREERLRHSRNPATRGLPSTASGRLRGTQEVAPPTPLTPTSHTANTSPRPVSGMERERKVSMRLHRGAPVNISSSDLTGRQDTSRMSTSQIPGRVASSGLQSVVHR
# SETUP CONDITIONS: Compound concentration 20.0 uM, Protein concentration 2.0 uM, Result type QC Liability
# Description: Thermal Shift Assay. Domain: start/stop: M1-K294
MEASURED PROPERTY: ΔTm (°C)
Use °C as the unit, but write only the number.

Please review the following examples before continuing.
>  <COMPOUND>
CC(=O)c1ccc2c(c1)/C(=C(/NC1CCN(C)CC1)c1ccc3c(c1)OCO3)C(=O)N2

>  <SCALE UNIT>
°C

>  <ΔTm>
2.46

$$$$
>  <COMPOUND>
O=C1Nc2ccc(I)cc2/C1=C/c1cc(Br)c(O)c(Br)c1

>  <SCALE UNIT>
°C

>  <ΔTm>
0.18

$$$$
>  <COMPOUND>
CN1CCC(C#N)(NC(=O)[C@@H](NC(=O)N2CCOCC2)C(C)(C)C)CC1

>  <SCALE UNIT>
°C

>  <ΔTm>
0.3

$$$$

Incoming: # lookup: ΔTm of Cc1nsc(Nc2cnc(C(F)(F)F)cn2)c1C(=O)Nc1ccc(O[C@H]2CCCN(CC(F)(F)F)C2)nc1
Outgoing: 0

Incoming: # lookup: ΔTm of COc1ccc(CC[C@@H](OC(=O)[C@@H]2CCCCN2C(=O)[C@H](c2cc(OC)c(OC)c(OC)c2)C2CCCCC2)c2cccc(OCCN3CCOCC3)c2)cc1OC
Outgoing: -2.54

Incoming: # lookup: ΔTm of O=C(NCCN1CCOCC1)c1ccc2nn(CCOc3ccc(Cl)cc3)cc2c1
Outgoing: 0.35

Incoming: # lookup: ΔTm of CC(C)c1nc2c(c3c1[C@@H](c1ccc(C(F)(F)F)cc1)OC31CCOCC1)[C@@H](O)CC(C)(C)C2
Outgoing: 0.25

Incoming: # lookup: ΔTm of COc1cc(-c2cncc(-c3ccc(N4CCN(C(C)C)CC4)cc3)c2C)cc(F)c1C(=O)N1CCCC1
Outgoing: 0.26

Incoming: # lookup: ΔTm of O[C@]1(C(F)(F)F)CCCC[C@H]1Nc1ccc(F)cc1
Outgoing: 0.07

Incoming: # lookup: ΔTm of Cn1cc(-c2ccc(N(C(=O)NCc3ccccc3)[C@H]3CC[C@H](Nc4ccc(C#N)cn4)CC3)cc2)ccc1=O
Outgoing: 0.29

Incoming: # lookup: ΔTm of COc1cc(C(=O)NCCOCCOCCOCC(=O)N[C@H](C(=O)N2C[C@@H](O)C[C@H]2C(=O)NCc2ccc(-c3scnc3C)cc2)C(C)(C)C)ccc1Nc1ncc(C(F)(F)F)c(Oc2cccc3c2C(=O)CC3)n1
Outgoing: 0.94

Incoming: # lookup: ΔTm of COc1ccccc1[C@@H]1CNCCC12CCN(C(=O)[C@](OC)(c1ccccc1)C(F)(F)F)CC2
Outgoing: 0.35

----------
# TESTED SYSTEM: Aurora kinase A (Homo sapiens)
# SETUP CONDITIONS: Compound concentration 20.0 uM, Protein concentration 2.0 uM, Result type QC Liability
# Description: Thermal Shift Assay. Domain: start/stop: E122-S403
MEASURED PROPERTY: ΔTm (°C)
Use °C as the unit, but write only the number.

>  <COMPOUND>
CC(=O)N(CCN(C)C)c1ccc(N/C(=C2\C(=O)Nc3cc(Cl)ccc32)c2ccccc2)cn1

>  <SCALE UNIT>
°C

>  <ΔTm>
7.54

$$$$
>  <COMPOUND>
CO[C@H]1C[C@@H]2CC[C@@H](C)[C@@](O)(O2)C(=O)C(=O)N2CCCC[C@H]2C(=O)O[C@H]([C@H](C)C[C@@H]2CC[C@@H](O)[C@H](OC)C2)CC(=O)[C@H](C)/C=C(\C)[C@@H](O)[C@@H](OC)C(=O)[C@H](C)C[C@H](C)/C=C/C=C/C=C/1C

>  <SCALE UNIT>
°C

>  <ΔTm>
-0.26

$$$$
>  <COMPOUND>
CN(C)CCCNc1ccnc(Nc2cccc(Cl)c2)n1

>  <SCALE UNIT>
°C

>  <ΔTm>
2.26

$$$$
>  <COMPOUND>
Cn1c(C2(NC(=O)c3ccc(NCC4CCCCC4)nc3)CCC2)nc2ccc(/C=C/C(=O)O)cc21

>  <SCALE UNIT>
°C

>  <ΔTm>
0.04

$$$$
>  <COMPOUND>
CCc1nc(C2CCC2)n2nc(-c3ccccc3)[nH]c(=O)c12

>  <SCALE UNIT>
°C

>  <ΔTm>
1.13

$$$$

Incoming: # lookup: ΔTm of CN(C)C/C=C/C(=O)Nc1cccc(S(=O)(=O)N2CCC(NC(=O)c3n[nH]cc3NC(=O)c3c(Cl)cc(Cl)cc3Cl)CC2)c1
Outgoing: 2.6

Incoming: # lookup: ΔTm of COc1ccc(CC[C@@H](OC(=O)[C@H]2CCCCN2C(=O)[C@@H](c2cc(OC)c(OC)c(OC)c2)C2CCCCC2)c2cccc(OCCN3CCOCC3)c2)cc1OC
Outgoing: -1.27

Incoming: # lookup: ΔTm of O=C(O)c1cc(F)c2nc(N3[C@@H]4CC[C@H]3C[C@@H](OCc3c(-c5ccccc5OC(F)(F)F)noc3C3CC3)C4)sc2c1
Outgoing: -8.04

----------
# TESTED SYSTEM: Aurora kinase A (Homo sapiens) (UniProt O14965)
# Sequence (whole entry): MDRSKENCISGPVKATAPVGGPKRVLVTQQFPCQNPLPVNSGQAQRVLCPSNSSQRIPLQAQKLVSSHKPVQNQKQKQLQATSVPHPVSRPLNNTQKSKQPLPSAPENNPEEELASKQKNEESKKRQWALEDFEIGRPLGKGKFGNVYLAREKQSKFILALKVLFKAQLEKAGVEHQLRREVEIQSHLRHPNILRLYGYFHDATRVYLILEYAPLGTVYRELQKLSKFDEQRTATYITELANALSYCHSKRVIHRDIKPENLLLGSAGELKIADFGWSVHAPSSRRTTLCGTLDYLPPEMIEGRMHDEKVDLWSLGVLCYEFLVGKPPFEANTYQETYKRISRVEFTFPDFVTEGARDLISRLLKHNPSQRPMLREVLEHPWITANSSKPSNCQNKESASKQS
# SETUP CONDITIONS: Compound concentration 20.0 uM, Protein concentration 2.0 uM, Result type QC Liability
MEASURED PROPERTY: ΔTm (°C)
Use °C as the unit, but write only the number.

>  <MOLECULE>
Cc1cc2nc(N3CCC(C(=O)NC4CCCC4)CC3)n(C(C)C)c2cc1C

>  <MEASURED PROPERTY>
ΔTm

>  <REPORTED VALUE>
0.01

$$$$

Incoming: # lookup: ΔTm of Fc1ccc(-c2nc(-c3c(F)cccc3F)[nH]c2-c2ccncc2)cc1
Outgoing: -0.55

Incoming: # lookup: ΔTm of Cc1nn(-c2nc3ccc(Cl)c(Cl)c3[nH]2)c(O)c1C1OC(=O)c2ccccc21 (stereo not drawn)
Outgoing: 0.71

Incoming: # lookup: ΔTm of NC(=O)c1ccccc1Nc1nc(-c2ccc(N3CCOCC3)cc2)cc2ncccc12
Outgoing: 10.1

Incoming: # lookup: ΔTm of CCCc1c(OCCCOc2ccc(OCC(=O)O)cc2)ccc(C(C)=O)c1O
Outgoing: -1.56

Incoming: # lookup: ΔTm of CC(=O)Nc1c(F)cc(C(=O)N[C@H]2CC[C@H](O)CC2)cc1O[C@@H](C)c1ccccc1
Outgoing: -0.15

Incoming: # lookup: ΔTm of NC(=O)C1CCCc2c1[nH]c1ccc(Cl)cc21 (stereo not drawn)
Outgoing: 0.7

Incoming: # lookup: ΔTm of O=C(O)CCCCCC[C@@H]1C(=O)NC(=O)N1CCC(O)C1CCCCC1 (stereo partly drawn)
Outgoing: -0.24

----------
# TESTED SYSTEM: Aurora kinase A (Homo sapiens)
# SETUP CONDITIONS: Compound concentration 20.0 uM, Protein concentration 2.0 uM, Result type QC Liability
Classes (ΔTm): low bracket = under -0.3 °C, middle bracket = from -0.3 °C up to 0.6 °C, high bracket = 0.6 °C and over

Here's what some known entries look like.
>  <COMPOUND>
CNC(=O)c1ccc2c(c1)ncn2-c1ccc(CC(=O)OC(C)(C)C)cc1

>  <LABEL>
high bracket

$$$$
>  <COMPOUND>
O=C(Nc1cccc(C(F)(F)F)c1)c1cccc(-n2cc(-c3ccco3)nn2)c1

>  <LABEL>
low bracket

$$$$

Incoming: Any idea which band Cc1nccn1-c1ccc(Sc2cccc(C3(C(N)=O)CCOCC3)c2)cc1 is in?
Outgoing: low bracket

Incoming: Any idea which band CN(C1CCc2c(c3ccccc3n2CC(=O)O)C1)S(=O)(=O)c1ccc(F)cc1 (configuration not stated) is in?
Outgoing: middle bracket

Incoming: Any idea which band Cc1ccccc1Oc1cc(-n2c(=O)cc(C(F)(F)F)[nH]c2=O)c2ccccc2c1Cl is in?
Outgoing: low bracket

Incoming: Any idea which band O=C(O)c1ccnc(N2CC(O)(c3ccc(OCc4c(-c5c(Cl)cccc5Cl)noc4C4CC4)cc3Cl)C2)c1 is in?
Outgoing: low bracket

Incoming: Any idea which band CC(C)(C[C@H]1CN(S(=O)(=O)c2cccc(C(F)(F)F)c2)c2cc(-c3cc(F)cc(OC(F)F)c3)ccc2O1)C(=O)O is in?
Outgoing: low bracket

Incoming: Any idea which band CN(C)C(=O)Cn1cc(-c2ccc(-c3nnc4ccccn34)cc2)cn1 is in?
Outgoing: middle bracket

Incoming: Any idea which band C[C@@H](Oc1cc(-n2cnc3ccc(OC4CCN(C)CC4)cc32)sc1C(N)=O)c1ccccc1Cl is in?
Outgoing: middle bracket

Incoming: Any idea which band Cn1cc(Nc2nccc(N3CC4CCC(C3)N4C(=O)[C@@H]3CC3(F)F)n2)cn1 is in?
Outgoing: high bracket

Incoming: Any idea which band CC(=O)N1CCC(c2ccc(C(=O)NC(=N)N)cc2C(F)(F)F)CC1 is in?
Outgoing: middle bracket

Incoming: Any idea which band Cc1cc(-c2cc3ncccc3c(OC[C@H]3CCCNC3)n2)ccc1N(C)C is in?
Outgoing: high bracket

Incoming: Any idea which band Cn1cc(-c2ccc(N(C(=O)NCc3ccccc3)[C@H]3CC[C@H](Nc4ccc(C#N)cn4)CC3)cc2)ccc1=O is in?
Outgoing: middle bracket

Incoming: Any idea which band C=CC(=O)Nc1cccc(C)c1Nc1ncc2cc(-c3c(Cl)c(OC)cc(OC)c3Cl)ccc2n1 is in?
Outgoing: low bracket

Incoming: Any idea which band COc1cc(-c2cn(C)c(=O)c3cnccc23)cc(OC)c1CN(C)C is in?
Outgoing: middle bracket

Incoming: Any idea which band CCN(C(=O)CO)[C@H]1CN(/C(=N\C#N)Nc2cccc(OC(F)F)c2)N=C1c1ccc(Cl)c(Cl)c1 is in?
Outgoing: high bracket

Incoming: Any idea which band CNc1oc(-c2cccc3ccccc23)nc1C#N is in?
Outgoing: middle bracket
